System: MOLT-4
TEST: NCI tumour cell line growth inhibition, 48 h
Activity calls are given as the source filed them. Rule as the data show it: active = GI50 up to about 1.1 µM and inactive = higher.
Classes to choose from: class 1 = active, class 0 = inactive

Consider the worked cases shown below.
molecule="COc1ccc(C2c3cc4c(cc3OC(N3CCCCC3)C2C)OCO4)cc1 (centres undefined)" category="class 0"
molecule=O=C1NC(N2CCCCC2)=N/C1=C\c1ccccc1O category="class 0"
molecule="COC(C)(C)C1=CCC(C)CC1 (centres undefined)" category="class 0"
molecule="COc1ccc2c(c1)N=C1CSC(c3cc([N+](=O)[O-])ccc3Cl)N1C2 (centres undefined)" category="class 0"
molecule=Fc1ccccc1-c1nn2c(C34CC5CC(CC(C5)C3)C4)nnc2s1 category="class 0"

Which result was noted for this molecule in the test: CCOC1c2cc(C(C)C)c(O)c(O)c2[C@@]23CCCC(C)(C)C2C1OC3=O (some centres undefined)
class 0

Call for entry O=C(NC(Cc1ccccc1)(Cc1ccc(O)cn1)C(=O)O)c1ccccc1 (centres undefined) :
class 0

Which outcome did this test record for the molecule CC(C)(C)OC(=O)NC(Cc1ccc(OCc2ccccc2)cn1)C(=O)N1CCCCC1 (centres undefined) ?
class 0

###

Test system: A498
TEST: NCI tumour cell line growth inhibition, 48 h
Calls of active or inactive are those of the source. No stated cut-off is given here; in the data, active = GI50 up to about 1.1 µM and inactive = higher.
Entries and their GI50

molecule=O=c1ccc2ccc(S)cc2o1 result_value="> 100 µM (inactive)"
molecule="CCCCCCCC/C=C/CCCCCCCC1CC(O)C(=O)O1 (configuration not stated)" result_value="28.4 µM (inactive)"
molecule=Cc1ccc2c(c1)C(=O)/C(=N/Nc1ccc(Cl)cc1)CCO2 result_value="> 100 µM (inactive)"
molecule=Cc1nc(C(N)=S)sc1C(=O)CC(=O)C(=O)Nc1cccc(Cl)c1C result_value="> 100 µM (inactive)"
molecule=CCOc1ccccc1/N=N/c1ccc2oc(=O)c(C(C)=O)cc2c1 result_value="> 100 µM (inactive)"

Sample C[N+](C)(C)CC1CCCC/C1=N\O (configuration not stated) — what was its GI50?
> 100 µM (inactive)

What value of GI50 has been reported for the following molecule? "CCOC(=O)c1c(N2CCN(C)CC2)[nH]c(=O)c(C(c2c(Cl)cccc2Cl)c2c(O)c(C(=O)OCC)c(N3CCN(C)CC3)[nH]c2=O)c1O"
22.1 µM (inactive)

###

System: A498
TEST: NCI tumour cell line growth inhibition, 48 h
Calls of active or inactive are those of the source. Rule as the data show it: active = GI50 up to about 1.1 µM and inactive = higher.
Mark one answer only. Choices: active, inactive

Worked set:
compound=COc1cc(O)c2c(c1O)C(=O)c1cc(C)ncc1C2=O category=inactive
compound=CC(=O)c1nc2ccccc2n1CC(=O)c1ccc([N+](=O)[O-])cc1 category=inactive

Hi, do you know how COc1c(O)ccc2c1CN1CCc3cc4c(cc3C1C2)OCO4 (stereo not given) came out in this test?
inactive

Which result was noted for this compound in the test: "Cc1cc2c3c(c1)S(=O)(=O)c1cc(Cl)ccc1N3CCC2"
inactive

Could you check what this test reported for "S=C(N/N=C(/c1ccccc1)c1ccccn1)N1CCCCC1" ?
active

What did this assay record as the result for "O=c1[nH]c2ccccc2c2oc(-c3ccccc3)nc12" ?
inactive

###

System: Malme-3M
TEST: NCI tumour cell line growth inhibition, 48 h
The source made the active and inactive calls. Rule as the data show it: active = GI50 up to about 1.1 µM and inactive = higher.
MEASURED_PARAMETER: GI50

Example entries and their recorded answers appear below.
compound="CC(=O)c1ccccc1NC(=O)C(=O)C(C(=O)c1ccccc1-c1ccccc1)C1OC(=O)c2ccccc21 (configuration not stated)" result_value="15.5 µM (inactive)"
compound=O=C(O)/C(=C/C(=O)c1ccc(Cl)cc1)NNc1ccc([N+](=O)[O-])cc1[N+](=O)[O-] result_value="30.5 µM (inactive)"

Tell me the measured GI50 of "C=C1C(=O)C=C[C@]2(C)CC[C@H]3C(=C)C(=O)O[C@@H]3[C@@H]12" , please.
1.97 µM (inactive)

Look up GI50: COC(=O)C12OC(C)(C(CC(=O)OC(C)(C)C)C1=O)C1C(=O)N(c3ccccc3)C(=O)C12 (configuration not stated)
> 100 µM (inactive)

Give its GI50 value. Item: "CCOC(=O)/N=c1/nc(N(C)C)ss1"
> 100 µM (inactive)

Entry CC12CCC(/C(=N/c3ccc([N+](=O)[O-])cc3)C1=O)C2(C)C (configuration not stated) has what GI50?
13.9 µM (inactive)

Would you kindly share the measured GI50 for Cc1ccc(CC(C)N)cc1 (configuration not stated) ?
> 100 µM (inactive)

Tell me the measured GI50 of "COc1cc2nc(-c3cccc(N(C)C)c3)cc(O)c2cc1OC" , please.
2.23 µM (inactive)

Requested read-out: GI50. Entry: C=C(C1=CC(=O)C(C)(C)O1)[C@@H]1CC=C([C@@H]2CC[C@H]3[C@@]2(C)CC[C@H]2C(C)(C)C(=O)[C@H](OC(=O)CC(C)(O)CC(=O)O)C[C@]32C)[C@H](O)O1 (some centres not stated)
13.4 µM (inactive)

Quick one: GI50 of "CO/C(N)=C(C#N)/N=C/c1ccccc1" ?
40.3 µM (inactive)

Give the measured GI50 of COc1ccc(N2C(=O)CC(=O)N(NC(=O)C(C)Oc3ccccc3C)C2=S)cc1 (configuration not stated) .
> 100 µM (inactive)

I would be grateful if you could share the reported GI50 for "O=C1c2ccccc2C(=O)N1[C@@H](Cc1ccccc1)C(=O)n1cccc1CO" .
> 100 µM (inactive)

###

System: OVCAR-3
TEST: NCI tumour cell line growth inhibition, 48 h
Calls of active or inactive are those of the source. Rule as the data show it: active = GI50 up to about 1.1 µM and inactive = higher.
MEASURED_PARAMETER: GI50

compound="COC(C)(C)C1=CCC(C)CC1 (stereo not given)" measured_parameter=GI50 result_value="> 100 µM (inactive)"
compound="Cc1ccc(/C=C2\\CN(C)CC3C(c4ccc(C)cc4)=C(C#N)C(=O)NC23)cc1 (stereo not given)" measured_parameter=GI50 result_value="> 50 µM (inactive)"
compound=O=C(c1ccc2ccccc2c1)C1S(=O)(=O)OCCOS1(=O)=O measured_parameter=GI50 result_value="> 100 µM (inactive)"
compound=CCOC(=O)O/N=C1/C(=C2/C(=O)Nc3ccccc32)Nc2ccccc21 measured_parameter=GI50 result_value="2.15 µM (inactive)"

Reported GI50, compound "O=C1CC2(CCNCC2)C(=O)N1N1CCCC1" : ____
> 100 µM (inactive)

###

System: SK-OV-3
TEST: NCI tumour cell line growth inhibition, 48 h
Active and inactive are the calls of the source. No stated cut-off is given here; in the data, active = GI50 up to about 1.1 µM and inactive = higher.
MEASURED_PARAMETER: GI50

molecule=CCCSc1ccc2[nH]c(N3C(=O)/C(=C/c4cc(OC)c(OC)c(OC)c4)N=C3c3ccccc3)cc2c1 measurement_target=SK-OV-3 result_value="1.6 µM (inactive)"
molecule=CC1=CC[C@@H]2[C@@H](CC[C@@]2(C)O)C(C)(C)[C@H]1CC[C@@H]1[C@@]2(C)CCC(=O)C(C)(C)O[C@@H]2CC[C@]1(C)O measurement_target=SK-OV-3 result_value="74.3 µM (inactive)"
molecule="CC(=O)NC1C(OCc2ccccc2)OC(CO)C(O)C1OCC(=O)NC(C)C(=O)NC(CCC(=O)OCCNC(=O)c1cccc2cc3ccccc3nc12)C(N)=O (stereo unspecified)" measurement_target=SK-OV-3 result_value="21.6 µM (inactive)"
molecule=CSC(=S)Nc1cccc(C)n1 measurement_target=SK-OV-3 result_value="> 100 µM (inactive)"
molecule="COC12C=CC(CC1)c1c(O)ccc(O)c12 (stereo unspecified)" measurement_target=SK-OV-3 result_value="> 100 µM (inactive)"

Below: the item to evaluate.
Field request: GI50 | item: "Clc1ccc2[nH]c(CCSCCc3nc4ccc(Cl)cc4[nH]3)nc2c1"
18.1 µM (inactive)

###

System: LOX IMVI
TEST: NCI tumour cell line growth inhibition, 48 h
Activity calls are given as the source filed them. No stated cut-off is given here; in the data, active = GI50 up to about 1.1 µM and inactive = higher.
Allowed answers: true (1) (active), false (0) (inactive)

Recorded test call requested for COP(=O)(OC)C(N)CCSC (configuration not stated)
false (0)

###

Test system: SK-MEL-2
TEST: NCI tumour cell line growth inhibition, 48 h
Activity calls are given as the source filed them. Rule as the data show it: active = GI50 up to about 1.1 µM and inactive = higher.
MEASURED_PARAMETER: GI50

Some molecules with recorded GI50:
molecule="CNC1Cc2c[nH]c3cccc(c23)C12C=C(C)C(=O)O2 (configuration not stated)" result_value="> 100 µM (inactive)"
molecule=[N-]=[N+]=C(C(=O)C(=[N+]=[N-])C(=O)c1ccccc1)C(=O)c1ccccc1 result_value="> 100 µM (inactive)"
molecule="COc1ccc(C(=O)CC(c2ccc(OC)c(OC)c2)c2c(O)oc3ccccc3c2=O)cc1OC (configuration not stated)" result_value="> 100 µM (inactive)"

Would you kindly share the measured GI50 for "C/C(=N\NC(N)=S)c1ccc(C)c(C)c1" ?
45 µM (inactive)

// GI50 lookup, key: C=CC/N=C1\N=C(C)C(C(=O)OCC)S1 (configuration not stated)
> 100 µM (inactive)

Endpoint output: GI50 of "CN(Cc1ccccc1)C1(N(C)Cc2ccccc2)CC1" . Value?
> 100 µM (inactive)

Please report the recorded GI50 for "COC(=O)c1cn(CCCCO)nn1" .
> 100 µM (inactive)

Please give the measured GI50 for this molecule: "Cc1cc(N2CCCCC2)nc2ccc(Cc3ccc4nc(N5CCCCC5)cc(C)c4c3)cc12"
> 100 µM (inactive)
